# System: S. aureus MW2 (NRS123)
# EXPERIMENT_DESCRIPTION: microbe, parasite or virus in culture
# Assay type: cell-based, Staphylococcus aureus
# CONDITION_CONTEXT: Staphylococcus aureus, NRS123, passage 10; selection group DAP + TIA
Listed below: log10 MIC values for each entry.
Transform log10 | Measure MIC | Unit µg/mL

Below: 5 compounds and their reported log10 MIC.
>>> reading("C=C[C@]1(C)C[C@@H](OC(=O)CSCCN(CC)CC)[C@]2(C)[C@H](C)CC[C@]3(CCC(=O)[C@H]32)[C@@H](C)[C@@H]1O [TIA, tiamulin]")
-0.30
>>> reading("Cn1nnc(-c2ccc(-c3ccc(N4C[C@H](CO)OC4=O)cc3F)cn2)n1 [TR-700, Tedizolid]")
-0.30
>>> reading("CN[C@H](CC(C)C)C(=O)N[C@H]1C(=O)N[C@@H](CC(N)=O)C(=O)N[C@H]2C(=O)N[C@H]3C(=O)N[C@H](C(=O)N[C@H](C(=O)O)c4cc(O)cc(O)c4-c4cc3ccc4O)[C@H](O)c3ccc(c(Cl)c3)Oc3cc2cc(c3O[C@@H]2O[C@H](CO)[C@@H](O)[C@H](O)[C@H]2O[C@H]2C[C@](C)(N)[C@H](O)[C@H](C)O2)Oc2ccc(cc2Cl)[C@H]1O [VAN, vancomycin]")
0.60
>>> reading("CN(C)[C@@H]1C(O)=C(C(N)=O)C(=O)[C@@]2(O)C(O)=C3C(=O)c4c(O)cccc4[C@@](C)(O)[C@H]3C[C@@H]12 [TET, tetracycline]")
-0.60
>>> reading("CC(=O)NC[C@H]1CN(c2ccc(N3CCOCC3)c(F)c2)C(=O)O1 [LZD, linezolid]")
0.30

## Input Which log10 MIC reading was recorded for the compound CCC[C@@H]1C[C@@H](C(=O)N[C@@H]([C@H]2O[C@H](SC)[C@H](O)[C@@H](O)[C@H]2O)[C@H](C)Cl)N(C)C1 [CLI, clindamycin] ?
## Output -0.90
